# assay.explanation: Pharmacokinetic study in pentagastrin‐pretreated dogs with or without HP‐β‐CD
# Format: in vivo, dog
# test.context: male, beagle, dog, plasma, po, 100 mg, Tmax, 100 mg tablets, HP‐β‐CD 8 g
endpoint: Tmax

# substance.smiles, reading
records = [
    ("C[C@H]1CN(C2COC2)CCN1c1ccc(Nc2cc(-c3ccnc(N4CCn5c(cc6c5CC(C)(C)C6)C4=O)c3CO)cn(C)c2=O)nc1", "3 h"),
]

---

# assay.explanation: Itraconazole clinical DDI study, fenebrutinib PK in healthy subjects
# Assay type: in vivo, human
# test.context: both, human, plasma, po, 100 mg
endpoint: Tmax (h)

# substance.smiles, endpoint, units, reading
records = [
    ("C[C@H]1CN(C2COC2)CCN1c1ccc(Nc2cc(-c3ccnc(N4CCn5c(cc6c5CC(C)(C)C6)C4=O)c3CO)cn(C)c2=O)nc1", "Tmax", "h", 1.56),
]

These entries and their values trace back to paper PMC7689742.
